biological target: human PD-L1 (Homo sapiens (Human)); experiment: Enzyme-Linked Immunosorbent Assay (ELISA), PD-1/PD-L1 binding; settings: plate-coated human PD-L1, biotinylated Human PD-1, absorbance at 450 nm
Sequence (Q9NZQ7 19-239): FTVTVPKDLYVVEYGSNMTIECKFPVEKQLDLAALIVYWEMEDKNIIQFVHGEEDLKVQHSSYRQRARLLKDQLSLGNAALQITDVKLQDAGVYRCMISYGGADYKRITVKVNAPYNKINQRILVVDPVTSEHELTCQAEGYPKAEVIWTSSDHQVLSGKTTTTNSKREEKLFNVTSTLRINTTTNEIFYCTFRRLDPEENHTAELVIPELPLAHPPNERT
pIC50: −log10 of the molar value.
For each entry below, report its pIC50 value.

# input Quick one: pIC50 for COc1cc(-c2cccc(-c3cccc(NC(=O)c4cn(C)c(=O)n(C)c4=O)c3C)c2Cl)cc(F)c1CN1CCC(C)(O)CC1 ?
# output > 8.00

# input Would you mind doing COc1cc(-c2cccc(-c3cccc(NC(=O)c4cn(C)c(=O)n(C)c4=O)c3Cl)c2Cl)cc(F)c1CN1CC(C)(C(=O)O)C1 as well?
# output > 8.00

# input Would you mind doing COc1cc(-c2cccc(-c3cccc(NC(=O)c4cn(C)c(=O)n(C)c4=O)c3C)c2Cl)cc(F)c1CNC1(C)CCOCC1 as well?
# output > 8.00

# input Would you mind doing COc1cc(-c2cccc(-c3cccc(NC(=O)c4cn(C)c(=O)n(C)c4=O)c3Cl)c2Cl)cc(F)c1CN1CCC(C(=O)O)CC1 as well?
# output > 8.00

# input Would you mind doing COc1cc(-c2cccc(-c3cccc(NC(=O)c4cn(C)c(=O)n(C)c4=O)c3C)c2Cl)cc(F)c1CNCC1(C(N)=O)CC1 as well?
# output > 8.00

# input Would you mind doing CCOc1cc(-c2cccc(-c3cccc(NC(=O)c4cn(C)c(=O)n(C)c4=O)c3C)c2Cl)cc(F)c1CN[C@H]1CCC(=O)NC1 as well?
# output 6.00 to 8.00
